target: CXCR4 receptor (human, UniProt P61073 1-352); assay: cell-based or functional assay
Sequence (P61073 whole entry): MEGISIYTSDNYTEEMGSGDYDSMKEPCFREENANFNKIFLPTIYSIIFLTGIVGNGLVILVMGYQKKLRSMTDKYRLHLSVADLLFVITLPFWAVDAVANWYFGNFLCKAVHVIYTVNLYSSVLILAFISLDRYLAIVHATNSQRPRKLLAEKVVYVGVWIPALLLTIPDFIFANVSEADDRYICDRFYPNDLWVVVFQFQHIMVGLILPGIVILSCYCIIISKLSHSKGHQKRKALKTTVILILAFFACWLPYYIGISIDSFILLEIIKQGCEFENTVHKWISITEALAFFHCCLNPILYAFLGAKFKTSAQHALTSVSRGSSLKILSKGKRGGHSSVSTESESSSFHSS
* marks the point of attachment. Palmitoyl = CCCCCCCCCCCCCCCC(=O)*

# Binder, Peak Ratio, CHTX, SUP B-15, 1.0 uM
measured = [
    ("Palmitoyl-KKLRSMTDKYRLH-NH2 (SMILES CCCCCCCCCCCCCCCC(=O)N[C@@H](CCCCN)C(=O)N[C@@H](CCCCN)C(=O)N[C@@H](CC(C)C)C(=O)N[C@@H](CCCNC(=N)N)C(=O)N[C@@H](CO)C(=O)N[C@@H](CCSC)C(=O)N[C@H](C(=O)N[C@@H](CC(=O)O)C(=O)N[C@@H](CCCCN)C(=O)N[C@@H](Cc1ccc(O)cc1)C(=O)N[C@@H](CCCNC(=N)N)C(=O)N[C@@H](CC(C)C)C(=O)N[C@@H](Cc1c[nH]cn1)C(N)=O)[C@@H](C)O) [CXCR-4 receptor Compound No. 43]", 0.04),
]
